Origin of the recorded values: patent US8080668B2

melting point listing for selected compounds.

Sample answers from the record:
COMPOUND	melting point
O=C(O)c1csc(Nc2ccc(-c3csc(-c4ccccc4)n3)cc2)n1 [Example 2-c]	283 to 286 °C
O=C(O)Cc1csc(Nc2ccc(Oc3ccc(Cl)cc3)cc2)n1 [Example 1-k]	192 to 193 °C
O=C(O)Cc1csc(Nc2ccc(Sc3ccc(Cl)cc3)cc2)n1 [Example 1-j]	191 to 192 °C
O=C(O)Cc1csc(Nc2ccc(N3CCOCC3)cc2)n1 [Example 1-i]	198 to 199 °C

Any idea what melting point was measured for O=C(O)Cc1csc(Nc2ccc(-c3ccccc3)cc2)n1 [Example 1-o] ?
158 to 159 °C

So what does the record say about melting point for Cc1nc(-c2ccc(Nc3nc(CC(=O)O)cs3)cc2)cs1 [Example 1-n] ?
153 to 156 °C

Endpoint output: melting point of O=C(O)Cc1csc(Nc2ccc(-c3csc(-c4ccccc4)n3)cc2)n1 [Example 1-m] . Value?
148 to 150 °C

Need melting point, item O=C(O)Cc1csc(Nc2ccc(OCc3ccccc3)cc2)n1 [Example 1-f]
116 to 118 °C

melting point lookup needed for O=C(O)Cc1csc(Nc2ccc(-c3csc(-c4ccc(C(F)(F)F)cc4)n3)cc2)n1 [Example 1-l] , thanks.
171 to 174 °C

Would you kindly share the measured melting point for Cc1nc(-c2ccc(Nc3nc(C(=O)O)cs3)cc2)cs1 [Example 2-b] ?
290 to 292 °C
